Origin of values: PubChem BioAssay (NCI)

- Tested on: NCI/ADR-RES ovarian
- Assay: NCI-60 one-dose screen, 48 h (100 = growth as untreated, 0 = no growth, -100 = all killed)
- Test Parameters: 10 µM unless noted
This is part of a sample that, as a whole, favours compounds with a hit. Of some 83,000 tested, about 20% had one in any assay.
Readout Label: growth (%)
Your answer should be a plain number; it is taken to be in %.

Reported growth of `Cc1ccc2nc(-c3ccc(C(=O)NNC(=S)Nc4ccccc4)cc3)[nH]c2c1` : 100

Reported growth of `CC(=O)/C(=C/c1ccc([N+](=O)[O-])cc1)C(=O)c1ccccc1` : 83.7

Reported growth of `O=C(O)/C=C/C(=O)Nc1cccc(Cn2nnc3cc(Cl)c(Cl)cc32)c1` : 106

Reported growth of Cc1nc2c(c(=O)[nH]1)C(c1ccccc1)c1ccc3ccccc3c1O2 (stereo not given) : 14.6

Reported growth of `Cc1ccc(C)c(/C=C2\CN(C(=O)OC(C)(C)C)C/C(=C\c3cc(C)ccc3C)C2=O)c1` : 26.5

Reported growth of `Cc1c(Cl)cccc1C(=O)Nc1nc2c(s1)CN(C(=O)c1ccc(C(F)(F)F)cc1)CC2` : 5.22

Reported growth of `Nc1[nH]c(=S)nc2oc(-c3ccccc3)c(-c3ccccc3)c12` : 98.9

Reported growth of `C=CCN1C(=O)c2cccc3c(N4CCOCC4)ccc(c23)C1=O` : 6.06

Reported growth of `O=C(Nc1ccc(Br)cc1)C1=NCCCCN1` : 82.5

Reported growth of `C=C(c1ccc(OC)c(/C=C/C(=O)c2ccc3c(c2)OCO3)c1)c1cc(OC)c(OC)c(OC)c1` : 5.57

Reported growth of `C=CCn1c(SCC(=O)Nc2ccc(/C(C)=N/O)cc2)nnc1-c1cc(-c2ccc(S(N)(=O)=O)cc2)nc2ccccc12` : 99

Reported growth of `Cc1cccc(N2CCC(=O)NC2=S)c1` : 105

Reported growth of `Cc1ccc(NC(=O)Cn2c(Br)nc3c2c(=O)n(C)c(=O)n3C)cc1` : 4.04

Reported growth of COc1ccc(C(O)c2cc3c(N)c(C(=O)Nc4cccc(Cl)c4C)sc3nc2C)cc1 (stereo not given) : 7.99

Reported growth of `COc1ccc(Oc2nc(Nc3ccc(N4CCOCC4)cc3)ncc2NC(=O)Nc2cc(OC)cc(OC)c2)cc1` : 80.8

Reported growth of CCCCCN(CCCCC)CC(O)c1cc(C)c2ccc3cc(C(C)C)ccc3c2c1 (stereo not given) : -54.6

Reported growth of `CCOC(=O)c1cc(C(=O)c2cc(OC)c(OC)c(OC)c2)n2ccccc12` : 10.7

Reported growth of `COc1ccc(C(=O)c2cc3c(N)c(C(=O)Nc4ccccc4)sc3nc2C)cc1` : 14.8

Reported growth of `CCN1C2CCC1/C(=C\c1ccc(F)cc1)C(=O)/C2=C/c1ccc(F)cc1` : 17.4

Reported growth of Nc1nc2c(c3ncccc13)C(c1cccc(Cl)c1)Cc1ncccc1-2 (stereo not given) : 18.7
